The origin of these recorded values is the supplement of paper PMC6555819.

Tested on: PXR:RXRa (NR concentration 270 nM, RXRa partner concentration 90 nM)
Method: PBM binding z-score (relative to random genomic background probes); higher = stronger binding; sequences stand for … in GC…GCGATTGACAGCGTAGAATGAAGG
Test readout: PBM binding z-score
Please state the value as a number alone, without comment.

stdin: // lookup PBM binding z-score for `TTACCAAGGTGAAAGGTGGTTGATGCACGCCTTG`
stdout: 0.419

stdin: // lookup PBM binding z-score for `TCTCGCAGGCCAGAGGGTCACTCAAGAGGTACGG`
stdout: 1.62

stdin: // lookup PBM binding z-score for `ATCTCTAGGTAAAGATAGTTCAGTGATTGCAAAT`
stdout: 1.38

stdin: // lookup PBM binding z-score for `CCGACTGGGGCAAAGGTTCCCATACTCAGTACGA`
stdout: -0.128

stdin: // lookup PBM binding z-score for `TCTGCTCGGTCAGTTGGTCAGCTAACGAGCTGCC`
stdout: -0.447

stdin: // lookup PBM binding z-score for `GCTAGTTGTTCAGTAAAAGGTCACACACCGGTCG`
stdout: 4.88

* * *

Tested on: LXRb homodimer (NR concentration 270 nM)
Method: PBM binding z-score (relative to random genomic background probes); higher = stronger binding; sequences stand for … in GC…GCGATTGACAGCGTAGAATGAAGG
Quick rule: PBM binding z-score of at least 0.07 means t, below that means f.

stdin: In plain terms: is recorded PBM binding z-score at least 0.07 for `CCTACTGGGCCAAAGGTAATTGATTCCAATGCTC` ?
stdout: f

stdin: In plain terms: is recorded PBM binding z-score at least 0.07 for `AGAATGAGGTTATTAACATCAGGGAATTGCGGTC` ?
stdout: t

stdin: In plain terms: is recorded PBM binding z-score at least 0.07 for `TCTCGGGGGACACGAAAGGTCAGAGCTCGACATC` ?
stdout: t

stdin: In plain terms: is recorded PBM binding z-score at least 0.07 for `ATACCAAGGTGATCGTGAGGTCGTTGCTACTAAC` ?
stdout: t

stdin: In plain terms: is recorded PBM binding z-score at least 0.07 for `GCGACTGGGGCTAAGCAGGTTACCATAAGGTTGG` ?
stdout: f

stdin: In plain terms: is recorded PBM binding z-score at least 0.07 for `GGAACGAGGGCAGTCGAGTTGATAGCATGGCGAT` ?
stdout: f

* * *

Tested on: RARb homodimer (NR concentration 270 nM)
Method: PBM binding z-score (relative to random genomic background probes); higher = stronger binding; sequences stand for … in GC…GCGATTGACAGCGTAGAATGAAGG
Please provide measured PBM binding z-score for the entries that follow.
Please state the value as a number alone, without comment.

stdin: // lookup PBM binding z-score for `GCTAGTTGGTCAGTAAAAGGTCATACACCGGTCG`
stdout: 4.93

stdin: // lookup PBM binding z-score for `TCTAGTTGGTCACGGAGGTCACACTCGACGGGTA`
stdout: 4.42

stdin: // lookup PBM binding z-score for `TCTAGTTGGTCAGGGAGGTCACACACGACGGGTA`
stdout: 4.42

stdin: // lookup PBM binding z-score for `CCTCTGAGGACAACAGGAGGTCAGAGCTGCCAGA`
stdout: 3.48

stdin: // lookup PBM binding z-score for `TCGAGCAGGTTAGTCGGGGCATTCAGCCAACATA`
stdout: 0.497

stdin: // lookup PBM binding z-score for `GTACCAAGGTGAATACGTCGTTGATGAGTAGGCG`
stdout: 0.139

stdin: // lookup PBM binding z-score for `ACTCGGAGGACAAAGGCCAGAGCTACGCCAGTGA`
stdout: 0.873

stdin: // lookup PBM binding z-score for `TAGCCTAGCTCATTGGGCCAGTATAGTACGCATC`
stdout: -0.698

stdin: // lookup PBM binding z-score for `CAAACTAGGTCAAGAGGTCGAAGTCCGCTTCCCG`
stdout: 4.4

stdin: // lookup PBM binding z-score for `TCTCGTAGGACACGAAAGGTCAGAGCTCGACATC`
stdout: 4.53

stdin: // lookup PBM binding z-score for `TCTTGTAGACCAAAGGTTAAGAAAGCCGAAGCCT`
stdout: 1.34

stdin: // lookup PBM binding z-score for `CCGACTGGGGCATGGTTACCATAACGCACAGCCA`
stdout: -0.189

stdin: // lookup PBM binding z-score for `TAGCCTAGGTCAGATCGGGCCAGTGTACGCTATA`
stdout: 2.17

stdin: // lookup PBM binding z-score for `ACTCGGAGGACAAAAGTCAGAGCTACGCCAGTGA`
stdout: 0.442

stdin: // lookup PBM binding z-score for `GATACAGGCTCAGCTAGAGGCCAGAGTATGGAAA`
stdout: -0.469

stdin: // lookup PBM binding z-score for `ACTCGCAGGCCAAGGGTCACTCAAGATTAGTCCG`
stdout: 3.81

stdin: // lookup PBM binding z-score for `GCTAGCAGGCCATTTGGGTAACTCAATGACGGGC`
stdout: -0.555

stdin: // lookup PBM binding z-score for `GCTGCTGGGTCAACTGATGGTCAGCTAAAGCTCG`
stdout: 3.36

stdin: // lookup PBM binding z-score for `CGAACTAGTTCATCCAGGACAGTGAATACATTGA`
stdout: 0.846

stdin: // lookup PBM binding z-score for `GGAACGAGGGCAAAGTTGATAGCTTCTGTCGACG`
stdout: 1.06

stdin: // lookup PBM binding z-score for `CCGACTTGGGCATAAGGTTACCATAAGCCAGCCC`
stdout: 0.962

stdin: // lookup PBM binding z-score for `GCTAGCAGGCCATTTGGGTCAATCAATGACGGGC`
stdout: 1.62

stdin: // lookup PBM binding z-score for `CGTCCAAGGTCAGCAGGTCAGTGACAGCGACGTG`
stdout: 5.12

stdin: // lookup PBM binding z-score for `TTACCAAGGTGAGCTGATGTCGTTGATCCAACTC`
stdout: 0.273

stdin: // lookup PBM binding z-score for `CAAACTAAGTCAAGAGGTCAAAGTCCGCTTCCCG`
stdout: 4.49

stdin: // lookup PBM binding z-score for `CGTCCAAGGTCAAGGTCAGTGTAAGAGACTCGAA`
stdout: 4.82

stdin: // lookup PBM binding z-score for `CGTCCAAGGTCAAGGTCGGTGAAAGAGACTCGAA`
stdout: 4.27

stdin: // lookup PBM binding z-score for `ATCTCAAGGTAACCAAGTTCAGTGAATGCCGAAC`
stdout: 1.51

stdin: // lookup PBM binding z-score for `TAGCCTACGTCATTCAGGGGCCAGTATAGAAAGC`
stdout: 0.534

stdin: // lookup PBM binding z-score for `CTACCAAGGTGAACAAAGTCGTTGATTACTATTC`
stdout: 0.608

stdin: // lookup PBM binding z-score for `TCTCGTAGGACACGAAGGTCAGAGCTTTCCAGAG`
stdout: 3.42

stdin: // lookup PBM binding z-score for `CCTGCTAGGTCAATGGTCTGCTAAAGCAGCTCGC`
stdout: 2.64

stdin: // lookup PBM binding z-score for `TCTCGGAGGACACGAAAGTTCAGAGCTCGACATC`
stdout: 3.16

stdin: // lookup PBM binding z-score for `ATCTCTAGGTAGGACTCAGTTCAGTGAAGAACGC`
stdout: 0.778

stdin: // lookup PBM binding z-score for `CAAACTAGGTCAAGCGGTCAAAGTCCGCTTCCCG`
stdout: 4.55

stdin: // lookup PBM binding z-score for `TCTAGCAGACCAGAGGGTCACTCAAGAGGTACGG`
stdout: 2.18

stdin: // lookup PBM binding z-score for `GCTAGTTGGTCAGTAAAAGGTCGCACACCGGTCG`
stdout: 2.98

stdin: // lookup PBM binding z-score for `AGAACGAGGGAACGCTGAGTTGATAGCAGAGTAG`
stdout: -0.725

stdin: // lookup PBM binding z-score for `GCTGCTAGGTCAACCGATGGTCAGCTAAAGCTCG`
stdout: 3.51

stdin: // lookup PBM binding z-score for `TCATTTAGGTAAAGGTGAAAGTCGAACGATATGA`
stdout: 1.52

stdin: // lookup PBM binding z-score for `CCTATTAGTTGACCATAAGGGCAACCGAAGCTCG`
stdout: 2.05

stdin: // lookup PBM binding z-score for `TCATATGGGTAAATGCTAGGTGAAAGTCCGATCT`
stdout: 0.561

stdin: // lookup PBM binding z-score for `GCTAGTTGGTCAGTAAAACGTCACACACCGGTCG`
stdout: 0.309

stdin: // lookup PBM binding z-score for `TTACCAAGGTGAAAGGTCGTTGACGCACGCCTTG`
stdout: 2.87

stdin: // lookup PBM binding z-score for `TCTTGTAGATCAGCGGGTTAAGAAAGCTGGCCAA`
stdout: 0.0505

stdin: // lookup PBM binding z-score for `TTAGCAAGGTGAAGGTCGTTGATCCCTCTGTAGA`
stdout: 1.68

stdin: // lookup PBM binding z-score for `TCATAAAGGTAAAAGGTGAAAGTCGGTGTGGTAA`
stdout: 2.25

stdin: // lookup PBM binding z-score for `CCAGACAGGTGAGACGGTAACTCAGCCTCGATTA`
stdout: 0.4

stdin: // lookup PBM binding z-score for `CCGACTGGGGCATAAGGTTACTATAAGCCAGCCC`
stdout: 1.38

stdin: // lookup PBM binding z-score for `CAAACTAGGTCAAGAGGTCATAGTCCGCTTCCCG`
stdout: 5.49

stdin: // lookup PBM binding z-score for `TTTAGTTGGTCACGGAGGTCACACACGACGGGTA`
stdout: 4.52
